Where these numbers come from: patent US20250388666A1

target.of.assay: T1, CEACAM1-HIS (Sino Biologics Inc.) (Homo sapiens (Human), UniProt P13688 35-428)
T1 construct: bought; not shown: His tag
T1 sequence: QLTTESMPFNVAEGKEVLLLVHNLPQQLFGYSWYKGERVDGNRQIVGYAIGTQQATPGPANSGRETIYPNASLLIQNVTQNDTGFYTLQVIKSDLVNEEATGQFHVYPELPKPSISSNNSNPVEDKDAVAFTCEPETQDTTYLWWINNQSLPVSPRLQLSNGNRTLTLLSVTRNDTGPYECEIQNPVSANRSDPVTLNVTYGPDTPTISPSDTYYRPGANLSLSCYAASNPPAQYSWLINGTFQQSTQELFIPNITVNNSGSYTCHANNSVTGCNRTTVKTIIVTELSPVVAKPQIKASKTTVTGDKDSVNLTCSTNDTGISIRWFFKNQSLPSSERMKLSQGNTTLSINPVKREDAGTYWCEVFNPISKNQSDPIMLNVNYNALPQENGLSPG
protocol.summary: SPR single-cycle, IgG on Protein A
measure.name: relative KD to chimeric parental antibody (ratio)

INSERT INTO results (binder, recorded_value) VALUES
  ('VH4/Vκ1 (antibody, V domains shown) VH: EVQLLESGGGLVQPGGSLRLSCAASGFIFSSHGMSWVRQAPGKGLEWVSTISSGGTYTYYADSVKGRFTISRDNSKNTLYLQMNSLRAEDTAVYYCARHDFDYDAAWFAYWGQGTLVTVSS VL: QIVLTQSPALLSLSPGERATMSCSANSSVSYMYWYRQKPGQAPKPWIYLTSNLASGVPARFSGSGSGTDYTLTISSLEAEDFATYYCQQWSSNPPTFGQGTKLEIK', 5.6),
  ('VH3/Vκ2 (antibody, V domains shown) VH: EVQLLESGGGLVQPGGSLRLSCAASGFIFSSHGMSWVRQAPGKGLEWVATISSGGTYTYYADSVKGRFTISRDNSKNTLYLQMNSLRAEDTAMYYCARHDFDYDAAWFAYWGQGTLVTVSS VL: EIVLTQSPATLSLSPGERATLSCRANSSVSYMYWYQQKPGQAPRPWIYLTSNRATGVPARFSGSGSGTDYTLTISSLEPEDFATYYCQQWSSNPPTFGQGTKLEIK', 6.1),
  ('VH3/Vκ1 (antibody, V domains shown) VH: EVQLLESGGGLVQPGGSLRLSCAASGFIFSSHGMSWVRQAPGKGLEWVATISSGGTYTYYADSVKGRFTISRDNSKNTLYLQMNSLRAEDTAMYYCARHDFDYDAAWFAYWGQGTLVTVSS VL: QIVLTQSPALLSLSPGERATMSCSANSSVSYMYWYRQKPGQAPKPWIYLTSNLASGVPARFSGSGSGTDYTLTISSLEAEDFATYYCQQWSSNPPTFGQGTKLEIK', 34.7),
  ('VH1/Vκ2 (antibody, V domains shown) VH: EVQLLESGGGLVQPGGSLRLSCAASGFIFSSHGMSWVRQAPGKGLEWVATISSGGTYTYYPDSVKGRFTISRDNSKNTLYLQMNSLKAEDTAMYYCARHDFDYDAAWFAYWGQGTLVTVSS VL: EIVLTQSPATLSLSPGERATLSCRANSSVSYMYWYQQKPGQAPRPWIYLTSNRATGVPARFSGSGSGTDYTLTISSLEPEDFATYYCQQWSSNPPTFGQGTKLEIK', 3.4),
  ('VH2/Vκ2 (antibody, V domains shown) VH: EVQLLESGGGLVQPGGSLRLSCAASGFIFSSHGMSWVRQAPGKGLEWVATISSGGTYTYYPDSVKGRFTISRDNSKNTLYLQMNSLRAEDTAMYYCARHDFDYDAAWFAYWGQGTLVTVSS VL: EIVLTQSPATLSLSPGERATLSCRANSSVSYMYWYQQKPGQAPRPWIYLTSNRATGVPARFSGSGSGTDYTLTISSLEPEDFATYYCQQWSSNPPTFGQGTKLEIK', 3.2);
